Sourced from PubChem BioAssay (NCI)

# System: M14 melanoma
# test_summary: NCI-60 one-dose screen, 48 h
# condition_details: 10 µM unless noted
This is part of a sample that, as a whole, favours compounds with a hit. Of some 83,000 tested, about 20% had one in any assay. Active and inactive are the calls of the source. The calls were made as follows: active = growth percent below 10; inactive = the rest.
Use one of these outcomes when replying: yes = active, no = inactive

Recorded test call requested for CN(C)CCCC(C#N)c1ccccc1 (centres undefined)
no

Recorded test call requested for COC(=O)C(Sc1ccc(Cl)cc1)C1SC(=S)N(Cc2ccccc2)C1=O (centres undefined)
no

Recorded test call requested for C=C1CCC2C3(C)COC(c4c(OC)cccc4OC)OC3CCC2(C)C1C/C=C1/C(=O)OCC1O (centres undefined)
no

Recorded test call requested for O=C(CSc1nc2ccccc2[nH]1)Nc1ccc(-c2nc3ccccc3s2)c(Cl)c1
yes

Recorded test call requested for CC1CN(c2oc(-c3ccccc3)nc2C#N)CC(C)O1 (centres undefined)
no

Recorded test call requested for O=[N+]([O-])c1cc(Cl)c2[nH]c3c(Cl)cc([N+](=O)[O-])cc3c2c1
no

Recorded test call requested for COc1ccc2c(c1)[nH]c(=O)c1c3cc(OC)ccc3cn21
no

Recorded test call requested for CN(CCCCN(C[C@H]1Cc2ncccc2CN1)[C@H]1CCCc2cccnc21)C1CCC(F)(F)CC1
no

Recorded test call requested for COc1cccc(/C=C/C(=O)Nc2cc(OC)c3c(c2)OCO3)c1
no

---

# System: 786-0 renal
# test_summary: NCI-60 one-dose screen, 48 h (100 = growth as untreated, 0 = no growth, -100 = all killed)
# condition_details: 10 µM unless noted
About 83,000 compounds went through this panel and 20% of them were active in at least one assay; those are over-represented in the sample as a whole.
Binary call on growth: 1 (yes) from 70% upward, 0 (no) beneath that.

Confirm if growth reported for the compound COc1cc(C2NN=C3c4ccccc4CCC32)cc(OC)c1OC (configuration not stated) is 70% or above.
1 (yes)

Confirm if growth reported for the compound Clc1cc2c(nn1)Nc1ccccc1S2 is 70% or above.
1 (yes)

Confirm if growth reported for the compound COc1ccc(/C=C2/C(=O)NC(SCC(=O)N3CCN(c4cc5c(cc4F)c(=O)c(C(=O)O)cn5C4CC4)CC3)=NC2N)cc1OC (configuration not stated) is 70% or above.
1 (yes)

Confirm if growth reported for the compound COc1cccc(-c2nc3sccn3c2-c2ccnc(NCCCNS(=O)(=O)c3ccc(C(F)(F)F)cc3)c2)c1 is 70% or above.
0 (no)

Confirm if growth reported for the compound COc1ccc(C2C=C(c3ccc(OC)c(OC)c3)N=C3SC=C(C)N32)c(Br)c1 (configuration not stated) is 70% or above.
1 (yes)

Confirm if growth reported for the compound COc1cc(/C=N\NC(=O)CN2CCN(c3cc4c(cc3F)c(=O)c(C(=O)N/N=C/c3cc(OC)c(OC)c(OC)c3)cn4C3CC3)CC2)cc(OC)c1OC is 70% or above.
0 (no)

Confirm if growth reported for the compound COc1ccc2c(c1)[nH]c(=O)c1c3cc(OC)ccc3cn21 is 70% or above.
0 (no)

Confirm if growth reported for the compound N#Cc1ccc(N2Cc3ccccc3OC3=C2C(=O)c2c(O)ccc(O)c2C3=O)cc1 is 70% or above.
0 (no)

Confirm if growth reported for the compound CCC(=O)Oc1ccc(/C(=C(/C)Cc2cccc(OC)c2)c2ccc(OCCN(C)C)cc2)cc1 is 70% or above.
1 (yes)

Confirm if growth reported for the compound CCCCCCCCCCCCCCCCCCNC(=O)[C@H]1CSC(c2ccc(OC)cc2O)N1 (some centres not stated) is 70% or above.
1 (yes)

Confirm if growth reported for the compound COc1cc(-c2ncn(/C=C\C(=O)OC(C)C)n2)cc(C(F)(F)F)c1 is 70% or above.
0 (no)

---

# System: U251 CNS
# test_summary: NCI-60 one-dose screen, 48 h (100 = growth as untreated, 0 = no growth, -100 = all killed)
# condition_details: 10 µM unless noted
# Description: Growth inhibition of the U251 human tumor cell line is measured as a screen for anti-cancer activity. Cells are grown in 96 well plates and exposed to the test compound for 48 hours. Compounds are tested at a single concentration, which is 10^-5 M for most compounds. The reported endpoint is percent growth (GI% or GIPRCNT), where numbers from 0 - 100% represent growth inhibition, and numbers from -100% - 0 represent cell death. For example, a value of 40 represents 60% growth inhibition. […]
About 83,000 compounds went through this panel and 20% of them were active in at least one assay; those are over-represented in the sample as a whole.
quantity_measured: growth (%)
Give just the number in %; leave the unit off.

Find the recorded growth belonging to O=c1[nH]c(NCc2ccccc2)nc2nc(Nc3ccc(NC(=S)Nc4ccccc4)cc3)nc(-c3ccc(O)cc3O)c12 and report it.
87.8

Find the recorded growth belonging to O=C1NN(C(=O)c2ccc(Cl)cc2)C(c2ccccc2)=N/C1=C\c1cn(-c2ccccc2)nc1-c1ccccc1 and report it.
92.4

Find the recorded growth belonging to COC(=O)C(Sc1ccc(Cl)cc1)C1SC(=S)N(Cc2ccccc2)C1=O (stereo unspecified) and report it.
90.3

Find the recorded growth belonging to COc1ccc(C2=C(c3cc(OC)c(OC)c(OC)c3)C(=O)CC2)cc1 and report it.
21.7

Find the recorded growth belonging to COc1ccc(Nc2nn3c(-c4ccccc4)cc(-c4ccccc4)nc3c2C(N)=O)c(OC)c1 and report it.
18.6

Find the recorded growth belonging to CCOC(=O)c1c(/N=C2\SC(=O)/C(=C\C(=O)OC)N2NC)sc2c1CCN(C(=O)OCC)C2 and report it.
101

Find the recorded growth belonging to Cc1ccc(-c2cc3nc(C(Cl)Cl)nc(-c4cccnc4)n3n2)cc1 and report it.
-15.3

Find the recorded growth belonging to O=C(Nc1ccncc1)C(=O)c1cn(S(=O)(=O)c2ccc(Cl)cc2)c2ccccc12 and report it.
31.3

Find the recorded growth belonging to CC(C)(C)OC(=O)NCCc1ccc(N=C=S)cc1 and report it.
75.4

Find the recorded growth belonging to N/C(=N\C(N)=N\c1nc2ccccc2s1)c1ccncc1 and report it.
71

Find the recorded growth belonging to Nc1ncnc2c1c(-c1ccc(Oc3ccccc3)cc1)nn2C[C@@H]1SSC[C@@H]1O and report it.
37.5

Find the recorded growth belonging to Cc1ccc(S(=O)(=O)NCCCNc2cc(-c3cn(C(C)(C)C)nc3-c3cccc(O)c3)ccn2)cc1 and report it.
58.1

Find the recorded growth belonging to O=C(CSC1CCc2ccccc21)N/N=C/c1ccccc1O (stereo unspecified) and report it.
48.7

Find the recorded growth belonging to CCOc1cc2c(Cl)ncnc2c(OCC)c1OCC and report it.
82.6

Find the recorded growth belonging to O=S(=O)(c1ccc(OCCO)cc1)c1ccc(OCCO)cc1 and report it.
93.2

Find the recorded growth belonging to CN1C(=O)N(C)C2C1NN=c1s/c(=C\C=C\c3ccccc3)c(=O)n12 (stereo unspecified) and report it.
63.7

Find the recorded growth belonging to O=C1NN(C(=O)c2ccc(Cl)cc2)C(c2ccccc2)=N/C1=C\c1ccc(F)cc1 and report it.
40.1

Find the recorded growth belonging to OB(O)c1cccc(-c2nc3ccc4[nH]ncc4c3c3c2CCCC3)c1F and report it.
50.6

Find the recorded growth belonging to Nc1cccc(-c2nc3sccn3c2-c2ccnc(NCCCNS(=O)(=O)c3cccc4ccccc34)n2)c1 and report it.
49.3

Find the recorded growth belonging to CCN(CC)c1ccc(CNc2ccnc3ccccc23)cc1 and report it.
52.4

Find the recorded growth belonging to O=[N+]([O-])c1ccc(Sc2ncccn2)c([N+](=O)[O-])c1 and report it.
78.6

Find the recorded growth belonging to ClC(Cl)c1nc(-c2ccccc2)nc2cc(-c3ccccc3)nn12 and report it.
14.6

Find the recorded growth belonging to CC(=O)Oc1cccc(S(=O)(=O)n2cc(C(=O)C(=O)Nc3ccncc3)c3ccccc32)c1 and report it.
93.1

Find the recorded growth belonging to CC(C)(C)OC(=O)NC(CSCc1ccccc1)C(=O)ON1C(=O)CCC1=O (stereo unspecified) and report it.
105

Find the recorded growth belonging to CCOC(=O)CN1/C(=N/c2sc3c(c2C(=O)OCC)CCN(C(=O)OCC)C3)SC(=O)/C1=C\C(=O)OC and report it.
85.3

Find the recorded growth belonging to O=C(c1ccccc1)c1c(/C=C/c2ccccc2)c2ccccc2[nH]c1=O and report it.
90.5

Find the recorded growth belonging to O=C(Nc1ccncc1)C(=O)c1cn(S(=O)(=O)c2ccccc2F)c2ccccc12 and report it.
30.7

Find the recorded growth belonging to O=[N+]([O-])c1cccc(-c2nc3sccn3c2-c2ccnc(NCCCNS(=O)(=O)c3ccc(C(F)(F)F)cc3)n2)c1 and report it.
60.9

Find the recorded growth belonging to O=C(NNC(=O)N1c2ccccc2C=Cc2ccccc21)c1ccc2ccccc2c1 and report it.
92.6

Find the recorded growth belonging to COc1cc(NCCCCCN)c2ncccc2c1 and report it.
107

Find the recorded growth belonging to CC1CN(c2oc(-c3ccccc3)nc2C#N)CC(C)O1 (stereo unspecified) and report it.
103
